# Test system: K-562 leukemia
# Assay protocol: NCI tumour cell line growth inhibition, 48 h
Assay readout: TGI

// worked examples, TGI included
Molecule	Assay readout	Reported
COc1cc2c(/C=C3/C(=O)Nc4c3ccc3ccccc43)c(Cl)n(C)c2cc1C	TGI	21.5 µM
NNC1=Nc2ccc(Cl)cc2C(=S)N2CSCC12 (stereo not given)	TGI	> 100 µM
OC1CCCN(C2(c3cccs3)CCCCC2)C1 (stereo not given)	TGI	> 100 µM

Query: Recorded TGI for "COc1cc(-c2nccn2-c2ccc3ccccc3c2)cc(OC)c1OC" , please?
Result: > 32.3 µM

Query: Recorded TGI for "O=C1/C=C/[C@@H](O)[C@@H]2C[C@@H](O)C[C@H]2/C=C/CCC[C@H](CCOCc2ccccc2)O1" , please?
Result: > 100 µM

---

# Test system: NCI-H460 lung
# Assay protocol: NCI tumour cell line growth inhibition, 48 h
Assay readout: TGI (µM)
Give the quantity in µM, number only.

Query: Recorded TGI for "CCOC(=O)O/C(=C\c1ccc(OC)cc1)c1c(OC(=O)OCC)n(C(=O)OCC)c2ccccc12" , please?
Result: 30.3

Query: Recorded TGI for "ClCc1ccccc1Cn1cnc2c(Cl)nc(Cl)nc21" , please?
Result: 7.15

Query: Recorded TGI for "Cc1cc(C(=O)NCCN(C)C)c2nc3ccccc3cc2c1" , please?
Result: 2.36

Query: Recorded TGI for "NC(N)=NN=C(c1ccccc1)c1ccccc1" , please?
Result: 17.3

Query: Recorded TGI for CCOC(=O)C1OC(=O)CC1C1(C(=O)OCC)C=CC(=O)O1 (stereo not drawn) , please?
Result: 58.1

Query: Recorded TGI for "COc1cc(C(c2c(O)c3ccccc3oc2=O)c2c(O)c3ccccc3oc2=O)ccc1O" , please?
Result: 44.6

Query: Recorded TGI for "COC(=O)c1oc([N+](=O)[O-])c(Cl)c1Cl" , please?
Result: 34.6

Query: Recorded TGI for "CC(C)(C)c1ccc(O)c(CN(Cc2c(O)ccc3ccccc23)C2CCCCC2)c1" , please?
Result: 30.4

---

# Test system: 786-0 renal
# Assay protocol: NCI tumour cell line growth inhibition, 48 h
Classification field: label 1 = TGI at or over 20 µM; label 0 = TGI under 20 µM.

Use the examples below as a reference point.
Compound	Class assignment
O=C(O)c1ccc(C(=O)Nc2cccc3ccccc23)c(C(=O)O)c1	label 1
O=C1/C(=C/c2ccccc2)CN(C(=O)CCN2CCC(=NO)CC2)C/C1=C\c1ccccc1	label 0
CC[C@H](C)[C@H](NC(=O)c1ccccn1)C(=O)N(C)[C@H](C[C@@H](OC(C)=O)c1nc(C(=O)N[C@@H](Cc2ccccc2)C[C@H](C)C(=O)OC)cs1)C(C)C	label 1
O=C(c1ccc(Cl)cc1)N(C(=S)OC12CC3CC(CC(C3)C1)C2)c1ccccc1	label 1
NC(N)=NN=C(c1ccccc1)c1ccccc1	label 1

Kindly review the next compound as well.
Query: Kindly determine if TGI recorded for "COC(=O)c1oc([N+](=O)[O-])c(Cl)c1Cl" is above or exactly 20 µM.
Result: label 0

---

Reported TGI values for a set of molecules
# System: EKVX NSCLC
# Assay protocol: NCI tumour cell line growth inhibition, 48 h

// worked examples, TGI included
Molecule	Target or test system	TGI
COc1nc(N)c(N=O)c(OCc2ccccc2)n1	EKVX NSCLC	> 10 µM
CCCCCCCCCCC(=O)CC(=O)c1c(O)cccc1O	EKVX NSCLC	> 100 µM
O=C1/C=C/[C@@H](O)[C@@H]2C[C@@H](O)C[C@H]2/C=C/CCC[C@H](CCOCc2ccccc2)O1	EKVX NSCLC	> 100 µM
Cc1cc(OCC(=O)O)c(Cl)cc1Cl	EKVX NSCLC	> 100 µM
CN[C@@H](C)C(=O)N[C@H]1CCS[C@H]2CC(C)(C)[C@@H](C(=O)N[C@H]3c4ccccc4C[C@H]3OCC#CC#CCO[C@@H]3Cc4ccccc4[C@@H]3NC(=O)[C@H]3N4C(=O)[C@@H](NC(=O)[C@H](C)NC)CCS[C@H]4CC3(C)C)N2C1=O	EKVX NSCLC	> 50 µM

Query: Recorded TGI for "CCOC(=O)O/C(=C\c1ccc(OC)cc1)c1c(OC(=O)OCC)n(C(=O)OCC)c2ccccc12" , please?
Result: > 100 µM

Query: Recorded TGI for "O=C1C=CC(=O)C(CNc2ccc(C(=O)OC34CC5CC(CC(C5)C3)C4)cc2)=C1Br" , please?
Result: 20.5 µM

---

Reported TGI values for a set of molecules
# Test system: UACC-62 melanoma
# Assay protocol: NCI tumour cell line growth inhibition, 48 h

Query: Recorded TGI for "COc1ccc2[nH]c3c(C)c4ccncc4c(C)c3c2c1" , please?
Result: 2.54 µM

Query: Recorded TGI for COC(c1ccccc1)C(c1ccccc1)N1CCOCC1 (stereo not drawn) , please?
Result: > 100 µM

Query: Recorded TGI for "CC[C@H](C)[C@H](NC(=O)c1ccccn1)C(=O)N(C)[C@H](C[C@@H](OC(C)=O)c1nc(C(=O)N[C@@H](Cc2ccccc2)C[C@H](C)C(=O)OC)cs1)C(C)C" , please?
Result: > 100 µM

Query: Recorded TGI for "COc1ccc2cc(C#Cc3ccc(-n4c(/C=C/c5cc(OC)c(OC)c(OC)c5)nc5ccccc5c4=O)c(C)c3)ccc2c1" , please?
Result: > 100 µM

---

# System: RXF 393 renal
# Assay protocol: NCI tumour cell line growth inhibition, 48 h
Assay readout: TGI (µM)
Give the quantity in µM, number only.

// worked examples, TGI included
Compound	Assay readout	Reported
c1ccc2c(c1)c1c(n2CCOCCCN2CCCCC2)CCCC1	TGI	25.1
COc1ccc2c(c1)/C(=N/OC(C)=O)c1c-2c(Nc2cccc(/C(C)=N/OC(C)=O)c2)nc2ccccc12	TGI	40.7
O=C(/C=C/c1ccc(O)c(O)c1)OCCCOC(=O)/C=C/c1ccc(O)c(O)c1	TGI	79.6
Nc1n[nH]c2cccc(C#Cc3cccc(NC(=O)c4ccc(N5CCOCC5)c(C(F)(F)F)c4)c3)c12	TGI	2.83
CC1=C(C(=O)Nc2ccc(F)c(Cl)c2)C(c2cccc(Cl)c2)NC(=S)N1 (stereo unspecified)	TGI	3.24

Query: Recorded TGI for "ClCc1ccccc1Cn1cnc2c(Cl)nc(Cl)nc21" , please?
Result: 3.01

Query: Recorded TGI for "O=C(c1ccc(Cl)c(Cl)c1)N1CCN(C(=O)c2ccc(Cl)c(Cl)c2)C1=S" , please?
Result: 35.8

---

Reported TGI values for a set of compounds
# System: SF-295 CNS
# Assay protocol: NCI tumour cell line growth inhibition, 48 h
Give the quantity in µM, number only.

Query: Recorded TGI for CC1CC[C@@]23CCC4(C)[C@@](C=CC5[C@@]6(C)CCC(=O)C(C)(C)C6CC[C@]54C)(OC2=O)[C@@H]3[C@H]1C (stereo not given in full) , please?
Result: 73.2

Query: Recorded TGI for "CCOc1cc(F)c([N+](=O)[O-])cc1[N+](=O)[O-]" , please?
Result: 12.8

Query: Recorded TGI for CC(C)(C)OC(=O)C1CCC/C1=N/Nc1ccc([N+](=O)[O-])cc1[N+](=O)[O-] (stereo not given) , please?
Result: 88.9

Query: Recorded TGI for "CC1(C)Cc2c(cnn2-c2ccc(C(F)(F)F)cc2)-c2nc(-c3ccc(O)cc3)[nH]c21" , please?
Result: 38

---

# Test system: U251 CNS
# Assay protocol: NCI tumour cell line growth inhibition, 48 h
Reported TGI values for a set of compounds

Compound	Reported
Nc1cccc2nnccc12	> 100 µM
CCCCCCc1cc2c(C)c(C)c(=O)oc2cc1OCCCOc1cc2oc(=O)c(C)c(C)c2cc1CCCCCC	> 100 µM

As a next step, examine the compound that follows.
Query: Recorded TGI for CCOC(=O)[C@H]1O[C@@H]1C(=O)NC(CC(C)C)C(=O)NCCC(C)C (stereo partly drawn) , please?
Result: > 100 µM

---

# Tested on: NCI/ADR-RES ovarian
# Assay protocol: NCI tumour cell line growth inhibition, 48 h
Assay readout: TGI

Molecule	Reported
Nc1ccc(S(=O)(=O)c2ccc(N)cc2)cc1	> 100 µM
C[C@]12CC[C@@H]3c4cc(Br)c(O)c(Br)c4CC[C@H]3[C@@H]1CC(Br)C2=O (stereo not given in full)	39.5 µM
CC(=O)NNc1nc(C)c(C(=O)/C=C/C=C/c2ccccc2)s1	> 100 µM
CC(C)(C)OC(=O)C1CCC/C1=N/Nc1ccc([N+](=O)[O-])cc1[N+](=O)[O-] (stereo not given)	> 100 µM

As a next step, examine the molecule that follows.
Query: Recorded TGI for COC(=O)C1C(OS(=O)(=O)O)CCC2CN3CCc4c([nH]c5ccccc45)C3CC21 (stereo not given) , please?
Result: > 100 µM
